Tested on: NIH 3T3 and HepG2 cells
experimentalProtocol: Effect on viability of mammalian cells (both cell lines)
Assay type: cell-based, mouse and human
pEC50: −log10 of the molar value.
measuredMetric: pEC50

State recorded pEC50 for all listed compounds.
1. CC(=O)N[C@@H](CCCCN)C(=O)N(CCC(=O)N[C@@H](CCCCN)C(=O)N(CCC(=O)N[C@@H](CCCCN)C(=O)N(CCC(=O)N[C@@H](CCCCN)C(=O)N(CCC(=O)N[C@@H](CCCCN)C(=O)N(CCC(=O)N[C@@H](CCCCN)C(=O)N(CCC(=O)N[C@@H](CCCCN)C(=O)N(CCC(=O)N[C@@H](CCCCN)C(=O)N(CCC(N)=O)Cc1ccccc1)Cc1ccccc1)Cc1ccccc1)Cc1ccccc1)Cc1ccccc1)Cc1ccccc1)Cc1ccccc1)Cc1ccccc1 [Peptidomimetic 15, Ac-(Lys-βNPhe)8-NH2]
2. C[C@@H](c1ccccc1)N(CCC(N)=O)C(=O)[C@H](CCCCNC(=N)N)NC(=O)CCN(C(=O)[C@H](CCCCN)NC(=O)CCN(C(=O)[C@H](CCCCNC(=N)N)NC(=O)CCN(C(=O)[C@H](CCCCN)NC(=O)CCN(C(=O)[C@H](CCCCNC(=N)N)NC(=O)CCN(C(=O)[C@H](CCCCN)NC(=O)CNCCCNCCCCNCCCN)[C@@H](C)c1ccccc1)[C@@H](C)c1ccccc1)[C@@H](C)c1ccccc1)[C@@H](C)c1ccccc1)[C@@H](C)c1ccccc1 [Peptidomimetic 26, Spermine-(Lys-βNspe-hArg-βNspe)3-NH2]
3. C[C@@H](c1ccccc1)N(CCC(N)=O)C(=O)[C@H](CCCCNC(=N)N)NC(=O)CCN(C(=O)[C@H](CCCCN)NC(=O)CCN(C(=O)[C@H](CCCCNC(=N)N)NC(=O)CCN(C(=O)[C@H](CCCCN)NC(=O)CCN(C(=O)[C@H](CCCCNC(=N)N)NC(=O)CCN(C(=O)[C@H](CCCCN)NC(=O)CNCCN)[C@@H](C)c1ccccc1)[C@@H](C)c1ccccc1)[C@@H](C)c1ccccc1)[C@@H](C)c1ccccc1)[C@@H](C)c1ccccc1 [Peptidomimetic 25, NDab-Lys-βNspe-hArg-βNspe)3-NH2]
4. COCCOCCOCC(=O)N[C@@H](CCCCN)C(=O)N(CCC(=O)N[C@@H](CCCCNC(=N)N)C(=O)N(CCC(=O)N[C@@H](CCCCN)C(=O)N(CCC(=O)N[C@@H](CCCCNC(=N)N)C(=O)N(CCC(=O)N[C@@H](CCCCN)C(=O)N(CCC(=O)N[C@@H](CCCCNC(=N)N)C(=O)N(CCC(N)=O)[C@@H](C)c1ccccc1)[C@@H](C)c1ccccc1)[C@@H](C)c1ccccc1)[C@@H](C)c1ccccc1)[C@@H](C)c1ccccc1)[C@@H](C)c1ccccc1 [Peptidomimetic 28, TODA-(Lys-βNspe-hArg-βNspe)3-NH2]

< 4.00
4.22 to 4.30
3.77 to 4.10
< 4.00
